- targetSystem: T1, Cav3.1 (Homo sapiens, UniProt O43497)
- T1 construct: expressed in transfected cells; host or cells: HEK-293, stably transfected
- T1 sequence (O43497 whole entry): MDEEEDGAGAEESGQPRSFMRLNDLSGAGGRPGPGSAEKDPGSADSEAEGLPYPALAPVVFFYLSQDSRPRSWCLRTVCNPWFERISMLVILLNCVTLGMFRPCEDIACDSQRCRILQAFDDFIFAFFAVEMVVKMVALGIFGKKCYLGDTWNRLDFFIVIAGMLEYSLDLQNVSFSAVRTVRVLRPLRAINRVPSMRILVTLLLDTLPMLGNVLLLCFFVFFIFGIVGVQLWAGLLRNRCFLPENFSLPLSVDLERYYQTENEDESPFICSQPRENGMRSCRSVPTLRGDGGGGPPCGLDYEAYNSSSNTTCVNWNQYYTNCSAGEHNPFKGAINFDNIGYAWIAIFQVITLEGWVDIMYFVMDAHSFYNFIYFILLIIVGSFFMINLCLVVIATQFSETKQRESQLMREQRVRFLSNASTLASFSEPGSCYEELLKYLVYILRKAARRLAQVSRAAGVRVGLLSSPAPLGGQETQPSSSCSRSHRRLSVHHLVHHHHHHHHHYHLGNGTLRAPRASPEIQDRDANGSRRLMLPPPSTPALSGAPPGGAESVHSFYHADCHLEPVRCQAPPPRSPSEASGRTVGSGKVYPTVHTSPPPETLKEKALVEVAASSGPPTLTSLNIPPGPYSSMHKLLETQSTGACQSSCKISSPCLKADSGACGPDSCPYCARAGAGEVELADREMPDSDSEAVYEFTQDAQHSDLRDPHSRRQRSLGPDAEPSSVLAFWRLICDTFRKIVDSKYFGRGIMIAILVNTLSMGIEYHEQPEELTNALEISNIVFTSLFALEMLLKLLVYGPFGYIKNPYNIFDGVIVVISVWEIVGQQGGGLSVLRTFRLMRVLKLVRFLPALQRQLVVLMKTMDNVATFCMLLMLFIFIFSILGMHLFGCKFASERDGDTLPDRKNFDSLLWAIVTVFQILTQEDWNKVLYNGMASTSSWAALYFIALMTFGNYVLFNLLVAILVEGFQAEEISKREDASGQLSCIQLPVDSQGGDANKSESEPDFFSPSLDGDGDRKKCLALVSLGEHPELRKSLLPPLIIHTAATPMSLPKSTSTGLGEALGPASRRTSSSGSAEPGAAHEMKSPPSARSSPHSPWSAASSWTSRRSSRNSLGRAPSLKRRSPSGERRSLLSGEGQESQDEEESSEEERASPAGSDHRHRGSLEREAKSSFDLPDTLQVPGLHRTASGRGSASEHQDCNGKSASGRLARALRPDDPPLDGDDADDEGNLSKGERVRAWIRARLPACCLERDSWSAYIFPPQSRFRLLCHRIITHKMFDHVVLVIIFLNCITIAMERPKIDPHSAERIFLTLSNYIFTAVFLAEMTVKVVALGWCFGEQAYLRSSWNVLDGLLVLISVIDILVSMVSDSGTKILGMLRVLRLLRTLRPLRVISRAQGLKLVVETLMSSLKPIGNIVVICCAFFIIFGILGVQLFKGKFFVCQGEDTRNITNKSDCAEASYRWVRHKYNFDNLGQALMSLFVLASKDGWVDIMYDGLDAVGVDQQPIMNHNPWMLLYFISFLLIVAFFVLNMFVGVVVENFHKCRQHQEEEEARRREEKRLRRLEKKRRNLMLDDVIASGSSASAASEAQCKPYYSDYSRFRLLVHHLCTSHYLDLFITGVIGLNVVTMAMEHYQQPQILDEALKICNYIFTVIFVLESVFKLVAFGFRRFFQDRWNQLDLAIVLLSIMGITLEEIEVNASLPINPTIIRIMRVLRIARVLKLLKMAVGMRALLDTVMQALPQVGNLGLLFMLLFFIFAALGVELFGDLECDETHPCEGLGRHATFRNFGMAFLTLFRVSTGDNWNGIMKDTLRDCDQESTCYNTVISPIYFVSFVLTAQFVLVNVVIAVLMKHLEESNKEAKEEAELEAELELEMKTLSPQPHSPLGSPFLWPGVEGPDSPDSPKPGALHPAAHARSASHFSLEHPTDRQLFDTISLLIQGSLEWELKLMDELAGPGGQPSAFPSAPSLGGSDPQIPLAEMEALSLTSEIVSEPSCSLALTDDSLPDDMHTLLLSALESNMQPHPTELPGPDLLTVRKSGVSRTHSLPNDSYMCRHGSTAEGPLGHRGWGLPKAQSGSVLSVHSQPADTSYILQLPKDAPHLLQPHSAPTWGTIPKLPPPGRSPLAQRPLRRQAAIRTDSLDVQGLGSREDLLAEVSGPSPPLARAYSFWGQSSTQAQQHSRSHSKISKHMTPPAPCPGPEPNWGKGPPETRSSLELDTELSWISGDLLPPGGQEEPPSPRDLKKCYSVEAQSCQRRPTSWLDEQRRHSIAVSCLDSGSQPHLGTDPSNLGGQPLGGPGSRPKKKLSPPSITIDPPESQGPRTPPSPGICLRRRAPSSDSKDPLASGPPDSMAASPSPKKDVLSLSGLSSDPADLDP
- testProtocol: Whole-cell patch clamp of Cav3.1 dependent LVA calcium current in HEK-293/Cav3.1 cells transiently transfected with γ subunits (Example 1)
- Format: cell-based
- measurementParameters: Table 2
Entries and their measured Inactivation V 0.5 follow.

>  <molecule>
γ4: rat calcium channel γ4 subunit (AF361341), SEQ ID NO:47 (protein, listed as Rattus norvegicus) MVRCDRGLQMLLTTAGAFAAFSLMAIAIGTDYWLYSSAHICNGTNLTMDDGPPPRRARGDLTHSGLWRVCCIEGIYKGHCFRINHFPEDNDYDHDSSEYLLRIVRASSVFPILSTILLLLGGLCIGAGRIYSRKNNIVLSAGILFVAAGLSNIIGIIVYISSNTGDPSDKRDEDKKNHYNYGWSFYFGALSFIVAETVGVLAVNIYIEKNKELRFKTKREFLKASSSSPYSRMPSYRYRRRRSRSSSRSTEASPSRDASPVGLKITGAIPMGELSMYTLSREPLKVTTAASYSPDQDAGFLQMHDFFQQDLKEGFHVSMLNRRTTPV

>  <Inactivation V 0.5>
−79.2 ± 1.5 (n = 7) mV

$$$$
>  <molecule>
γ7: rat calcium channel γ7 subunit (AF361345), SEQ ID NO:50 (protein, listed as Rattus norvegicus) MSHCSSRALTLLSSVFGACGLLLVGIAVSTDYWLYMEEGTVLPQNQTTEVKMALHAGLWRVCFFAGREKGRCVASEYFLEPEINLVTENTENILKTVRTATPFPMVSLFLVFTAFVISNIGHIRPQRTILAFVSGIFFILSGLSLVVGLVLYISSINDEVMNRPSSSEQYFHYRYGWSFAFAASSFLLKEGAGVMSVYLFTKRYAEEEMYRPHPAFYRPRLSDCSDYSGQFLQPEAWRRGRSPSDISSDVSIQMTQNYPPAIKYPDHLHISTSPC

>  <Inactivation V 0.5>
−68.6 ± 1.4 (n = 10) mV

$$$$
>  <molecule>
γ6L: rat calcium channel γ6 subunit, long isoform (AF361343), SEQ ID NO:48 (protein, listed as Rattus norvegicus) MMWSNFFMQEEDRRRTAVGRRRAQEQQNLGLTPEREGKIKLGLLVAIVGATLAVLAVGTEFWVELNTYKTNGSAVCEAAHLGLWKVCIKRLWQADVPAGRETCGPAELPGEANCTYFKFFTTGENAHIFQRTTKKEVNLAAAVIAVLGLTAMALGCLCVIMVLSKGAEFLLRLGAVCFGLSGLLLFVSLEVFRHSVRALLQGVNPETPPAPRLAYEYSWSLGCGVGAGLILLLGGVCFLLLTLPSWPWRSLCPKRGGPTA

>  <Inactivation V 0.5>
−78.5 ± 2.6 (n = 6) mV

$$$$
>  <molecule>
γ6S: rat calcium channel γ6 subunit, short isoform (AF361344), SEQ ID NO:49 (protein, listed as Rattus norvegicus) MMWSNFFMQEEDRRRTAVGRRRAQEQQNLGLTPEREGKIKLGLLVAIVGATLAVLAVGTEFWVELNTYKTNGSAVCEAAHLGLWKVCIKRLWQADVPAGRETCGPAELPGEANCTYFKFFTTGENAHIFQRTTKKGLLLFVSLEVFRHSVRALLQGVNPETPPAPRLAYEYSWSLGCGVGAGLILLLGGVCFLLLTLPSWPWRSLCPKRGGPTA

>  <Inactivation V 0.5>
−72.0 ± 5.9 (n = 3) mV

$$$$
